Taken from the supplement of paper PMC9428881.

For each record, write down the corresponding background-corrected fluorescence.
Protocol Description: background-corrected fluorescence of 3'-dye-labeled ssDNA relative to brightest sequence (3'-GCGCG) (fraction); higher = brighter dye fluorescence (less quenching)
Details: dye: Cy3 (3' terminal)
Give bare numbers.

{"Sequence Chain": "TTTTTTCAGCATCAGCATGCTTTTTTTTTTTTTTTGTGTA [ATGTG]", "Value": 0.595}
{"Sequence Chain": "TTTTTTCAGCAGCATGATGCTTTTTTTTTTTTTTTGTTCA [ACTTG]", "Value": 0.492}
{"Sequence Chain": "TTTTTTGCTGCTGCTGATGCTTTTTTTTTTTTTTTAAACA [ACAAA]", "Value": 0.51}
{"Sequence Chain": "TTTTTTCATGCTGAGCATGCTTTTTTTTTTTTTTTGACTA [ATCAG]", "Value": 0.491}

Would you kindly look at the next entry?
Data request, read-out background-corrected fluorescence, for TTTTTTGCTGCGCATGATGCTTTTTTTTTTTTTTTAATCA [ACTAA] 0.489
